readout: melting point

CN(CC(=O)O)C(=O)c1cccc2c(Br)cccc12    205 °C

Quick note, melting point for `O=C(O)CCCCCCNS(=O)(=O)c1ccc(Cl)cc1` landed at 128 to 129 °C

response.value for `O=C(O)c1snc(-c2ccc(Cl)c(Cl)c2)c1C(=O)O` (field: melting point) = 188 °C

In plain terms, `O=C(NCCCCN1CCC(Oc2cccc3ccccc23)CC1)c1ccc(-c2ccc(C(F)(F)F)cc2)cc1` has a documented melting point of 166 °C

The value of melting point measured for the compound `CC(C)(C)N1CC2(CCNCC2)OC1=O` turned out to be 108 to 111 °C

// field: melting point; key: `CCCOC(=O)CCc1cc(Cl)ccc1C(=O)CCCNC(C)=O` ; value = 60 to 62 °C

In plain terms, `CCOC(=O)N(c1ccccc1N=NC(NC(=O)CCl)(C(=O)OCC)C(=O)OCC)c1cccc(C)c1C` has a documented melting point of 120 to 122 °C

Quick note, melting point for `O=C(Nc1ccc(C(F)(F)F)cc1)NC1CCN(C(=O)Cc2c[nH]cn2)CC1` landed at 121 to 124 °C

Briefly, melting point measured for `Nc1cc(C(F)(F)C(F)(F)F)no1` : 86 to 87 °C

The recorded melting point for entry `COc1cc(SC(C)C)cc(C#N)c1N` equals 81 to 82 °C

So for `O=C(O)Cc1ccc(OCc2ccccc2)c(OCCc2ccccc2)c1` , the logged melting point turned out to be 110 to 112 °C

// melting point value for `O=C1NCCN=C1c1ccc([N+](=O)[O-])cc1` : 191 to 192 °C

Given item `C=Cc1ccc(-c2ccccc2F)cc1` , the value recorded as its melting point is 38 °C

Lab note: measured melting point of `O=Cc1c(Cl)ncnc1Cl` was 65 to 66 °C

Quick note, melting point for COc1c(C)c(C)c2c(c1C)C(c1ccc(CBr)cc1)C(C)(C)O2 (configuration not stated) landed at 97 to 98 °C

Consider `COc1cc(C)cc2nc(S(=O)(=O)Nc3cc(C)cnc3F)nn12` . Its measured melting point is 262 to 264 °C

The compound CCSCCOC(=O)C1=C(C)NC(C)=C(C(=O)OCC=Cc2ccccc2)C1c1cccc([N+](=O)[O-])c1 (configuration not stated) showed melting point equal to 142 to 144 °C

Lab note: `COc1c(Cc2ccccc2)cc(C(=O)O)c2ccccc12` gave melting point of 146 to 148 °C

Field melting point (entry CNc1ccc2c(C)nc(CC3OC(COC(=O)c4ccccc4)C(O)C3O)n2n1 (configuration not stated) ) reads 163 to 165 °C

Value of measured melting point for the entry O=C1NCC(Cc2ccccc2)O1 (configuration not stated) : 104 to 105 °C

// sample OC(COc1ccc(Cl)cc1Cl)(Cn1cnnc1)Cn1cncn1 (configuration not stated) , its melting point was 182 °C

The compound listed as `COc1ccc(C#CCSc2ccc(OCC(=O)O)c(C)c2)cc1` shows melting point equal to 143 to 144 °C

###

Recorded melting point for the following molecules

A selection of reference data follows.
CCCCCCCCCCCCCCOC(=O)c1cc(Cl)c(N2N=C(Nc3cc(N4CCCC4=O)ccc3Cl)CC2=O)c(Cl)c1    143 to 146 °C
CON1C(C)(C)CC(OC(=O)NNC(=O)OC2CC(C)(C)N(OC)C(C)(C)C2)CC1(C)C    147 to 149 °C
COc1cc(CN2CCN(c3ccccc3F)CC2)ccc1OC(=O)N(C)C    130 to 133 °C

Entry `Cc1ccc2c(n1)C(=O)N(c1cccc3ccccc13)C2=O` — recorded melting point = 200 to 205 °C

###

Quick list: melting point per entry.

Answered examples (5):
CCCCCCCCCCOc1ccc2cc(C#CC(C)OC(=O)CC)ccc2c1 (centres undefined)    74 to 75 °C
N#Cc1ccc2c(c1)C(=O)c1ccccc1OC2    116 to 127 °C
O=C1c2ccccc2C(=O)N1CC(=O)N1c2ccccc2N(Cc2ccc3ccccc3c2)C(=O)C2CCCC21 (centres undefined)    238 to 239 °C
COc1ccc2ccc(N3C(=O)c4ccccc4C3CC(O)CCC(C)C)nc2n1 (centres undefined)    110 °C
COc1ccc(-c2nc(Sc3ccccc3NC(C)=O)[nH]c2-c2ccc(OC)cc2)cc1    183 °C

According to the records, this molecule `CS(=O)(=O)Nc1c([N+](=O)[O-])cnn1-c1c(Cl)cc(C(F)(F)F)c(F)c1Cl` displays melting point of 107 to 115 °C

Reported melting point ( CCN(C(=O)OC(C)(C)C)C1CC=C(c2c[nH]c3ccc([N+](=O)[O-])cc23)CC1 (centres undefined) ) = 217 to 219 °C

melting point in this record for `FC(F)c1nc2ccccc2n1-c1nc(Nc2cnccn2)nc(N2CCOCC2)n1` : 271 to 274 °C

Entry `c1ccc(COc2ccc(CN(c3ccccc3)c3ccccc3)cc2)cc1` — recorded melting point = 104 to 109 °C

###

// values below are reported melting point

CC(CCC(N)=O)C1CC=C2C3=C(CCC21C)C1(C)CCC(O)C(C)(C)C1CC3 (stereo not given)    233 to 235 °C
CCc1ccc(-c2nc(-c3ccccc3Cl)nn2C)c(Cl)c1    75.5 to 77.5 °C
CCOC(=O)C1=C(c2ccc(OC)cc2)Nc2n[nH]cc2C1c1ccccc1Cl (stereo not given)    211 °C

So, `O=C(CC1CCCCC1)N(O)Cc1ccccc1` ? Its melting point was 83 to 85 °C

melting point measured on `CN(CCOc1ccc(N)cc1)CCc1ccc(N)cc1` = 73 to 74 °C

###

readout: melting point

See these solved cases before continuing.
CCOc1ccc2c(c1)n(C13CC4CC(CC(C4)C1)C3)c(=O)n2S(=O)(=O)c1ccc([N+](=O)[O-])cc1OC    231 °C
COCC(COC)Nc1c(C)nn2c(-c3ccc(Cl)cc3Cl)cccc12    86.9 to 90 °C
Nc1ccc2c(c1)CC(=O)c1ccccc1O2    116 to 117 °C
COc1cc2c(Nc3ccc(Cl)cc3F)c(C#N)cnc2cc1OCc1ccccc1    241 to 243 °C

Next molecule, melting point to be filled in.
The reported value for `CC(C)(C)OC(=O)NCc1cccc(C(=O)OCC#N)c1O` in terms of melting point is 144 to 146 °C

###

readout: melting point

Previously resolved entries follow.
CCOC(=O)[C@@H](CNC(=O)c1ccccc1)[C@H](C)O    72 to 73 °C
Cc1c(NC(=O)CC(C)(C)C)cc2c(c1C)OC(C)(C)C2c1ccc(C(C)C)cc1 (stereo not given)    172 to 173 °C
CN1CC[C@H](c2ccc(Cl)cc2)[C@@H](O)C1 (racemic)    99 to 100 °C
CC(=O)Nc1cccc(C(c2cccc(NC(C)=O)c2)(C(F)(F)F)C(F)(F)F)c1    309 to 311 °C
CCCN(CC(=O)Nc1c(SC)nc(C)nc1N(CC)CC)c1ccccc1    173 to 175 °C

Note to self: melting point recorded for `CC(=NO)c1nccc(OCC(F)(F)F)n1` was 179 to 181 °C

Item: `CC1(C)C=C(c2ccc(C(=O)N3Cc4cccn4Cc4ccccc43)cc2)CC(C)(C)C1` | melting point: 142 to 143 °C

Measured melting point, `O=C(O)c1cccnc1Oc1cccc(C(F)(F)F)c1` : 149 to 151 °C

// melting point value for `Cc1nnc2n1-c1ccccc1C(c1ccc(Cl)cc1)=NN2Cc1ccc(NC=O)cc1` : 215 to 216 °C

Lookup result for `CSc1sc(C(=O)N(C)C)c2c1C(=O)CC(C)(C)C2` ; measured melting point: 135 to 136 °C

###

readout: melting point (°C)
Express your answer in °C, writing the number without its unit.

Would you please look over these solved cases?
Cc1ccc(N(c2ccc(C)cc2)c2c(F)cc(F)c(F)c2F)cc1    95
CCCCSN(C)C(=O)Nc1ccc(Cl)c(Cl)c1    47
O=C1c2ccccc2C(=O)c2sc(-c3ccsc3)nc21    258

Moving on to the next compound.
`O=[N+]([O-])c1c(Br)nc2ccc(Cl)cc2c1C(F)(F)F` has a reported melting point of 120

###

readout: melting point

Examples from the recorded data:
O=c1[nH]c2cc(Cl)ccc2c(O)c1Sc1ccccc1Cl    > 300 °C
CCOC(=O)c1ccc2ccc(O)cc2c1    155 to 156 °C
CC(C)(O)Cn1cnc2c(N)nc3cc(Br)ccc3c21    > 250 °C
CC(C)Cn1c(=O)n(C)c(=O)c2c(SCCCO)n(Cc3ccccc3CS(=O)(=O)c3ccccc3)nc21    50 °C
CC1=C(C(=O)OC(C)C)C(c2cccc([N+](=O)[O-])c2)C(C(=O)OC2CN(C(c3ccccc3)c3ccccc3)C2)=C(N)N1 (centres undefined)    95 to 98 °C
Cc1cc(C#N)cc(C(=O)NC(C)C2CC2)c1NC(=O)c1cc(Br)nn1-c1ncccc1Cl (centres undefined)    244 to 245 °C

Entry under test: O=C(COc1ccccc1)NC1C(=O)N2C(C(=O)OCc3ccc([N+](=O)[O-])cc3)=C(O)CCC12 (centres undefined) . Its melting point was 160 to 162 °C

The reported melting point of the compound `CCCc1c(CSc2nnc(SCC(=O)O)s2)ccc(C(C)=O)c1O` was 116 to 118 °C

Recorded result, `COC(=O)/C=C/c1ccc2nn(C)cc2c1C(=O)OC` , melting point: 232 to 234 °C

The compound listed as `CN(C)c1ccccc1SCC(N)=NO` has a reported melting point of 133 °C

The measured melting point associated with `CCn1cnc2c(Cl)nc(Cl)nc21` reads 100 to 103 °C

Measured melting point, `Cc1cc(-c2ccc(C(F)(F)F)nc2)cc(-c2cccc(-c3cccc(S(N)(=O)=O)c3)n2)n1` : 233 to 234 °C

The measured melting point associated with `CC(C)(C)COc1c(-c2ccc(S(C)(=O)=O)cc2)cnn(-c2cccc(Cl)c2)c1=O` reads 151 to 153 °C

Entry `O=C(O)c1ccc(NC(=O)c2sc3c([N+](=O)[O-])c(O)c(O)cc3c2Cl)cc1` — recorded melting point = 298 to 300 °C

// field: melting point; key: N#Cc1ccc(COc2ccc(CC(NC(=O)c3cc4ccc(-c5ccc(Cl)cc5)cc4o3)C(=O)O)cc2)cc1 (centres undefined) ; value = 204 °C

Measured melting point of `CCN(C(=O)CN(C(=O)CNC(=O)Nc1cccc(C)c1)c1ccccc1)c1ccccc1` : 158 °C

// recorded melting point for `COc1cc(Oc2cccc(C(F)(F)F)c2)nc(C(=O)NN=C2CCCC2)c1` : 146 to 148 °C

Note to self: melting point recorded for CCCCCCCCCCC(O)C[N+]1([O-])CCOCC1 (centres undefined) was 151 to 152 °C

Measured melting point of CCSCC(=O)N1CCSC1COc1ccc(OC)cc1 (centres undefined) : 98 to 110 °C
